Experiment: DNDI: Cytotoxicity against L-6 rat myoblasts from skeletal muscle cells
Conditions: L6 rat skeletal muscle myoblast cells, IC50
result type: IC50 (µM)
Number in µM, nothing else.

>>> value_reported("Fc1cc(Cl)ccc1C(NC1CCN(c2ccccc2F)CC1)c1cccnc1 (stereo not given)")
53.2
>>> value_reported("CON=C(Cc1ccc(Cl)cc1Cl)c1cccnc1")
91.3
>>> value_reported("CC(C)c1ccc(S(=O)(=O)N2CCN(C(c3ccc(Cl)cc3)c3cncnc3)CC2)cc1 (stereo not given)")
46.1
>>> value_reported("FC(F)(F)c1ccc(N2CCC(NC(c3cccnc3)c3cnn(Cc4ccccc4)c3)CC2)cc1 (stereo not given)")
51.6
>>> value_reported("Fc1cc(Cl)ccc1C(NC1CCN(Cc2ccc(C(F)(F)F)cc2)CC1)c1cccnc1 (stereo not given)")
26.6

Input: GET /values?readout=IC50&item= FC(F)(F)c1ccc(C(NC2CCN(c3ccccc3C(F)(F)F)CC2)c2cccnc2)cc1 (stereo not given)
Output: 45.8

Input: GET /values?readout=IC50&item= Fc1ccc(N2CCC(NC(c3cccnc3)c3ccc(Cl)cc3F)CC2)c(C(F)(F)F)c1 (stereo not given)
Output: 58.9
